These entries and their values trace back to ChEMBL document CHEMBL1129495.

assay: Inhibitory activity against high affinity binding site of Bradykinin receptor in rat uterus membrane was reported.; assay type: cell membranes
Quantity measured: pIC50
Answer as the number alone; pIC50 is minus log10 of concentration in mol/L.

[in] Could you share which pIC50 value was measured for H-RPPGFSPFR-OH [BRADYKININ] ?
[out] 11.00

###

assay: Inhibitory activity against low affinity binding site of Bradykinin receptor in rat uterus membrane was reported.; format: cell membranes
Quantity measured: IC50 (nM)
Supply the numeric figure in nM, leaving out any unit text.

[in] Could you share which IC50 value was measured for H-RPPGFSPFR-OH [BRADYKININ] ?
[out] 1

###

test: Inhibitory activity against high affinity binding site of Bradykinin receptor in rat uterus membrane was reported.; format: cell membranes
Quantity measured: pIC50
Answer as the number alone; pIC50 is minus log10 of concentration in mol/L.

Worked cases, answers included:
CN(C(=O)[C@@H]1CCCN1C(=O)[C@@H](N)CCCN=C(N)N)[C@@H](Cc1ccccc1)C(=O)NCC(=O)N[C@@H](Cc1ccccc1)C(=O)N[C@@H](CO)C(=O)N1CCC[C@H]1C(=O)N[C@@H](Cc1ccccc1)C(=O)N[C@@H](CCCN=C(N)N)C(=O)O :: 9.70
CN(C(=O)[C@H](CO)NC(=O)[C@H](Cc1ccccc1)NC(=O)CNC(=O)[C@@H]1CCCN1C(=O)[C@@H]1CCCN1C(=O)[C@@H](N)CCCN=C(N)N)[C@H](Cc1ccccc1)C(=O)N[C@@H](Cc1ccccc1)C(=O)N[C@@H](CCCN=C(N)N)C(=O)O :: 9.96
CN(C(=O)[C@@H]1CCCN1C(=O)[C@@H](N)CCCN=C(N)N)[C@H](Cc1ccccc1)C(=O)NCC(=O)N[C@@H](Cc1ccccc1)C(=O)N[C@@H](CO)C(=O)N1CCC[C@H]1C(=O)N[C@@H](Cc1ccccc1)C(=O)N[C@@H](CCCN=C(N)N)C(=O)O :: 9.52
CN(C(=O)[C@H](CO)NC(=O)[C@H](Cc1ccccc1)NC(=O)CNC(=O)[C@@H]1C[C@@H](O)CN1C(=O)[C@@H]1CCCN1C(=O)[C@H](CCCN=C(N)N)NC(=O)[C@H](N)CCCN=C(N)N)[C@H](Cc1ccccc1)C(=O)N(C)[C@@H](Cc1ccccc1)C(=O)N[C@@H](CCCN=C(N)N)C(=O)O :: 9.48

Attention now shifts to the item below.
[in] Could you share which pIC50 value was measured for `CN(C(=O)[C@@H](N)CCCN=C(N)N)[C@@H](Cc1ccccc1)C(=O)N1CCC[C@H]1C(=O)NCC(=O)N[C@@H](Cc1ccccc1)C(=O)N[C@@H](CO)C(=O)N1CCC[C@H]1C(=O)N[C@@H](Cc1ccccc1)C(=O)N[C@@H](CCCN=C(N)N)C(=O)O` ?
[out] 8.46

###

experiment: Inhibitory activity against high affinity binding site of Bradykinin receptor in guinea pig ileum was reported.; format: tissue-based; conditions: Cavia porcellus
Quantity measured: IC50 (nM)
Supply the numeric figure in nM, leaving out any unit text.

[in] Could you share which IC50 value was measured for H-RPPGFSPFR-OH [BRADYKININ] ?
[out] 0.01

###

assay: Inhibitory activity against low affinity binding site of Bradykinin receptor in rat uterus membrane was reported.; format: cell membranes
pIC50: −log10 of the molar value.
Binary call on pIC50: yes (1) from 7 upward, no (0) beneath that.

Would you please look over these solved cases?
CN(C(=O)[C@H](CO)NC(=O)[C@H](Cc1ccccc1)NC(=O)CNC(=O)[C@@H]1CCCN1C(=O)[C@@H]1CCCN1C(=O)[C@@H](N)CCCN=C(N)N)[C@@H](Cc1ccccc1)C(=O)N[C@@H](Cc1ccccc1)C(=O)N[C@@H](CCCN=C(N)N)C(=O)O :: no (0)
CN(C(=O)[C@H](CO)NC(=O)[C@H](Cc1ccccc1)NC(=O)CNC(=O)[C@@H]1CCCN1C(=O)[C@@H]1CCCN1C(=O)[C@@H](N)CCCN=C(N)N)[C@H](Cc1ccccc1)C(=O)N[C@@H](Cc1ccccc1)C(=O)N[C@@H](CCCN=C(N)N)C(=O)O :: yes (1)
CN(C(=O)[C@@H]1CCCN1C(=O)[C@@H](N)CCCN=C(N)N)[C@@H](Cc1ccccc1)C(=O)NCC(=O)N[C@@H](Cc1ccccc1)C(=O)N[C@@H](CO)C(=O)N1CCC[C@H]1C(=O)N[C@@H](Cc1ccccc1)C(=O)N[C@@H](CCCN=C(N)N)C(=O)O :: no (0)
CN(C(=O)[C@@H](N)CCCN=C(N)N)[C@@H](Cc1ccccc1)C(=O)N1CCC[C@H]1C(=O)NCC(=O)N[C@@H](Cc1ccccc1)C(=O)N[C@@H](CO)C(=O)N1CCC[C@H]1C(=O)N[C@@H](Cc1ccccc1)C(=O)N[C@@H](CCCN=C(N)N)C(=O)O :: no (0)
CN(C(=O)[C@H](CO)NC(=O)[C@H](Cc1ccccc1)NC(=O)CNC(=O)[C@@H]1C[C@@H](O)CN1C(=O)[C@@H]1CCCN1C(=O)[C@H](CCCN=C(N)N)NC(=O)[C@H](N)CCCN=C(N)N)[C@H](Cc1ccccc1)C(=O)N(C)[C@@H](Cc1ccccc1)C(=O)N[C@@H](CCCN=C(N)N)C(=O)O :: yes (1)

[in] I'd appreciate it if you could say whether `CN(C(=O)[C@H](CO)NC(=O)[C@H](Cc1ccccc1)NC(=O)CNC(=O)[C@@H]1CCCN1C(=O)[C@@H]1CCCN1C(=O)[C@H](CCCN=C(N)N)NC(=O)[C@H](N)CCCN=C(N)N)[C@@H](Cc1ccccc1)C(=O)N[C@@H](Cc1ccccc1)C(=O)N[C@@H](CCCN=C(N)N)C(=O)O` has pIC50 at least equal to 7.
[out] yes (1)

[in] Same again, this time with `CN(C(=O)[C@@H]1CCCN1C(=O)[C@@H](N)CCCN=C(N)N)[C@H](Cc1ccccc1)C(=O)NCC(=O)N[C@@H](Cc1ccccc1)C(=O)N[C@@H](CO)C(=O)N1CCC[C@H]1C(=O)N[C@@H](Cc1ccccc1)C(=O)N[C@@H](CCCN=C(N)N)C(=O)O`
[out] yes (1)
